Origin of measurements: patent US20220306762A1

Molecular target: T1, murine CD38 on transiently transfected Expi293 cells (Origene MC208001) (murine, UniProt P56528 1-304)
T1 construct: whole, on cells; also called Murine (FACs)
T1 sequence (looked up): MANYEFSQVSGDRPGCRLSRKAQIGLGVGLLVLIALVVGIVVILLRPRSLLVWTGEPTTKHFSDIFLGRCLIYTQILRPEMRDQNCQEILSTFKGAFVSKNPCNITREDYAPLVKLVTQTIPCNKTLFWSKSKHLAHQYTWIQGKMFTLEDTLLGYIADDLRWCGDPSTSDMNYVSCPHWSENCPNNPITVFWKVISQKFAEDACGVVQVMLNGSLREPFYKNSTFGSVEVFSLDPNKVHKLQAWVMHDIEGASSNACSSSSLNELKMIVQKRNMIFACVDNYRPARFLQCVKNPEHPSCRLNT
Test: flow cytometry, transfected Expi293 cells;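 note: antibody binding to Expi293 cells transiently expressing human or murine CD38, antibodies applied at 10 ug/ml for 60 min on ice, read by flow cytometry as percent gated cells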
parameter: FACs 10 ug/ml (percent gated)

Below are 3 binders. Give each one its FACs 10 ug/ml (percent gated).
1. 40566p1.B12 (scFv, V domains shown, tested as scFv-Fc supernatant) VH: DVQLVESGGGVVRPGESLRLSCAASGFTFDNYDMTWVRQAPGEGLEWVSFISSRGIFTYYADSVKGRFTISRDNSKNTLYLQMNSLRAEDTAIYYCAKDSGEYYFFDYWGLGTLVTVSS VL: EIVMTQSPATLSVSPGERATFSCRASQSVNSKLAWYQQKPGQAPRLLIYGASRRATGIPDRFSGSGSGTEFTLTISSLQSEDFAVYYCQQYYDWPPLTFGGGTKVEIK
2. 40566p1.C1 (scFv, V domains shown, tested as scFv-Fc supernatant) VH: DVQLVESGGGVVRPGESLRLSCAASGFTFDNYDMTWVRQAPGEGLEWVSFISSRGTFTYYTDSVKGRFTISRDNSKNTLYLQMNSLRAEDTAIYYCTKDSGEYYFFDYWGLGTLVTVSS VL: ETVMTQSPATLSVSPGERATFSCRASQSVNSKLAWYQQKPGQAPRLLIYGASRRATGIPDRFSGSGSGTEFTLTISSLQSEDFAVYYCQQYYDWPPLTFGGGTKVEIK
3. 40617p1.2.H1 (scFv, V domains shown, tested as scFv-Fc supernatant) VH: EVQLLESGGGLVQPGGSLRLSCAASGFTFTNYWMTWVRQAPGKGLEWVSAISSYGGNYMYYADSVKGRFTISRDNSENTLYLQMNSLRAEDTAVYYCAKDWDDGMDVWGQGTTVTVSS VL: EIVMTQSPAVLSVSPGERATLSCRASQTVGSKLAWYQQKPGQAPRLLIYGVSTRAAGIPDRFSGSGSGTDFTLTISSLQSEDFAVYYCQQYYDLPPYSFGGGTKVEIK

Data returned:
["57.7%", "75.3%", "68.5%"]

Respectfully, I request FACs 10 ug/ml (percent gated) for each entry included below.
1. 40769p1.1.A2 (scFv, V domains shown, tested as scFv-Fc supernatant) VH: EVQLLESGGGLVQPGGSLRLSCAASGFLFDDYGMSWVRQAPGKGLEWVSAISYKGGSTYYADSVKGRFTISRDNSKNTLYLQMSSLRAEDTAVYYCAKDHKWNYYGMDVWGQGTTVTVSS VL: QSVLTQPPSASGTPGQRVTISCSGSTSNIGNDNYVSWYQQLPGTAPRLLIYKDDQRPSGVPDRFSGSKSGTSASLAISGLQSEDEADYYCGTWDDRLNAWVFGGGTKLTVL
2. 40596p1.B1 (scFv, V domains shown, tested as scFv-Fc supernatant) VH: EVQLLESGGGLVEPGGSLRLSCAASGFDFSTYAMTWVRQAPGKGLEWVAGNGWSGSFIYYADSVKGRFTISRDNSKNTLYLQMNSLRAEDTAVYYCTRNPGFGEMDVWGQGTTVTVSS VL: EIVLTQSPGTLRLSPGERATLSCKASQTVGTTLAWYQQKPGQAPRLLIYGASTRATGIPDRFSGSGSGTEFTLTISSLQSEDFADYYCQQYKSWPPLTFGGGTKVEIK

Data returned:
1: 2.65%; 2: 45.4%
